The reported measurements were obtained from ChEMBL document CHEMBL1201862.

- Tested on: HOP-92
- assayOverview: NCI tumour cell line growth inhibition, 48 h
Active and inactive are the calls of the source. Cut-off read from the data, not from the text of the source: active = GI50 up to about 1.1 µM and inactive = higher.
readoutKind: GI50

NCCN1C(=O)C2C3c4ccccc4C(c4ccccc43)C2C1=O (centres undefined) :: 28.2 µM (inactive)
COc1cc(/C=C2/SC(c3ccccc3)N(Cc3ccccc3)C2=O)cc(OC)c1OC (centres undefined) :: 32.8 µM (inactive)

Working through the 2 compounds below one at a time, give GI50 for each.
1. CC(=O)Oc1c2c(c(CC=C(C)C)c3c1C(=O)C1=C[C@@H]4CC5C(C)(C)OC(C/C=C(/C)C(=O)O)(C4=O)[C@@]15O3)OC(C)(CCC=C(C)C)C=C2 (some centres undefined)
2. CNC(=O)CN(CC(N)=O)C(=O)NC

### Response
1. 0.237 µM (active)
2. > 100 µM (inactive)
